Test system: MDA-MB-468 breast
Assay: NCI-60 one-dose screen, 48 h
Conditions: 10 µM unless noted
About 83,000 compounds went through this panel and 20% of them were active in at least one assay; those are over-represented in the sample as a whole. Active and inactive are the calls of the source. The calls were made as follows: active = growth percent below 10; inactive = the rest.
Outcomes: active, inactive

molecule: O=C1/C(=C/c2ccc([N+](=O)[O-])cc2)SC(=Nc2ccccc2)N1Nc1ccccc1
class assignment: inactive

molecule: C=CCn1c(-c2nc3ccc(C(=C(C#N)C#N)c4ccccc4)cc3[nH]2)cc2cc(Br)ccc21
class assignment: inactive

molecule: CCN1C(=O)N(CC)C2Nn3c(s/c(=C\c4ccccc4F)c3=O)=NC21 (stereo unspecified)
class assignment: inactive

molecule: COc1cc2ncnc(Oc3ccc(NC(=O)Nc4ccc(CN5CCOCC5)c(C(F)(F)F)c4)c4ccccc34)c2cc1OC
class assignment: active

molecule: O=C1CSc2ccccc2N1
class assignment: inactive

molecule: Cc1ccccc1NC(=O)Cn1cc(CN2CCN(c3ccnc4cc(Cl)ccc34)CC2)nn1
class assignment: inactive

molecule: Nc1nc(-c2ccnc(Cl)c2)nn1-c1nc2ccccc2s1
class assignment: inactive

molecule: C#Cc1cccc(NC(=O)c2cccc(NC(=O)CCl)c2)c1
class assignment: active

molecule: O=C(NNc1nc2cc(F)ccc2n2c(CN3CC4(COC4)C3)ccc12)c1cnccn1
class assignment: active

molecule: CC(=O)Oc1cccc(OC(C)=O)c1OC(C)=O
class assignment: inactive

molecule: CCN1CC(CCN2CCOCC2)C(C(c2ccccc2)c2ccccc2)C1=O (stereo unspecified)
class assignment: inactive

molecule: CCCc1cc2c(cc1CN(Cc1cc3c(cc1CCC)OCO3)C(=N)OCC)OCO2
class assignment: inactive

molecule: O=[N+]([O-])c1ccc(N/N=C(/C(=N/Nc2ccc([N+](=O)[O-])cc2)c2ccccc2)c2ccccc2)cc1
class assignment: inactive

molecule: Cc1ccccc1NC(=O)c1sc2nc3c(cc2c1N)CCCC3
class assignment: inactive

molecule: CN1/C(=C\C(I)C(I)C2=[N+](C)c3ccccc3C2(C)C)C(C)(C)c2ccccc21 (stereo unspecified)
class assignment: active

molecule: CCOC(=O)/C(C)=C\c1ccc(OC)c(OC)c1
class assignment: inactive

molecule: Cc1[nH]n(-c2cccc(Cl)c2)c(=O)c1/C=C1\C=c2ccccc2=CC1=O
class assignment: inactive

molecule: OCc1cnccc1NCCCOc1ccccc1
class assignment: inactive

molecule: CC(=O)N(C)c1ccc(Nc2ccc(Nc3ccc(N(C)C(C)=O)cc3)c3c2C(=O)c2ccccc2C3=O)cc1
class assignment: inactive

molecule: CN(C)CCOc1nc2c3ccncc3cc(-c3cccc(Cl)c3)c2c2cnccc12
class assignment: inactive

molecule: COc1ccc(C2=CN3CC=CCC3CC2=O)cc1 (stereo unspecified)
class assignment: inactive
